# study_system: human Complement Component 5, Anaphylatoxin Receptor (C5a), C5AR1 (gene 728) (UniProt P21730)
# Sequence (P21730 whole entry, looked up): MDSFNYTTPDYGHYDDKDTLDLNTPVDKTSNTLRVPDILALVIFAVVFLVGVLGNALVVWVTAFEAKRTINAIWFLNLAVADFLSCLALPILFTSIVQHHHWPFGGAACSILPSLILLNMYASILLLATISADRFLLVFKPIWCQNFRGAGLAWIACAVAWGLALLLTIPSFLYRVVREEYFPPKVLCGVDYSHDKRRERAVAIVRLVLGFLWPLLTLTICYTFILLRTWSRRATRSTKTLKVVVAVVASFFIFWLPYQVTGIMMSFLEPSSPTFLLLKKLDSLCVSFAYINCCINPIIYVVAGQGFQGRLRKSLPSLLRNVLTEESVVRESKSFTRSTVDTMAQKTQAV
# assay_notes: NVS_GPCR_hC5a: NovaScreen (NVS) G Protein-Coupled Receptor Assay for human Complement Component 5, Anaphylatoxin Receptor (C5a)
Results filed as inconclusive are left out. Activity calls are given as the source filed them. Rule for the calls: active = hit-call score of the fitted dose curve at least 0.9, where 1 is the maximum; inconclusive = response in the unintended direction; inactive = score below 0.9.
Hello, when you answer, please use one of the following outcomes: yes (1) for active, no (0) for inactive

A selection of reference data follows.
{"columns": ["compound", "class_assignment"],
 "data": [
  ["CC1(C)C(C=C(Cl)Cl)C1C(=O)OC(C#N)c1cccc(Oc2ccccc2)c1 (stereo not given)", "no (0)"],
  ["C#CCOS(=O)OC1CCCCC1Oc1ccc(C(C)(C)C)cc1 (stereo not given)", "no (0)"],
  ["Oc1ccc(C(c2ccc(O)cc2)C(Cl)(Cl)Cl)cc1", "no (0)"],
  ["CCC[CH2][Sn]([Cl])([CH2]CCC)[CH2]CCC", "no (0)"],
  ["CCCCCCCCCC", "no (0)"],
  ["CCOC(=O)NCCOc1ccc(Oc2ccccc2)cc1", "no (0)"]
]}

Ask: Hi team, can someone confirm the assay call for COC(=O)c1c(C(F)F)nc(C(F)(F)F)c(C2=NCCS2)c1CC(C)C ?
Reply: no (0)

###

# study_system: human Complement Component 5, Anaphylatoxin Receptor (C5a), C5AR1 (gene 728) (UniProt P21730)
# assay_notes: NVS_GPCR_hC5a: NovaScreen (NVS) G Protein-Coupled Receptor Assay for human Complement Component 5, Anaphylatoxin Receptor (C5a)
Records with an inconclusive call do not appear. Active and inactive are the calls of the source. How the source made its calls: active means hit-call score of the fitted dose curve at least 0.9, where 1 is the maximum; inconclusive means response in the unintended direction; inactive means score below 0.9.
Hello, when you answer, please use one of the following outcomes: TRUE (active), FALSE (inactive)

A selection of reference data follows.
{"columns": ["molecule", "class_assignment"],
 "data": [
  ["CCC(C)(C)C(=O)OC1=C(c2ccc(Cl)cc2Cl)C(=O)OC12CCCCC2", "FALSE"],
  ["[Cl-].[Cl-].[Hg+2]", "TRUE"]
]}

Ask: Hi team, can someone confirm the assay call for C=CCc1cc(S(=O)(=O)c2ccc(O)c(CC=C)c2)ccc1O ?
Reply: FALSE
